Record form. Attribute: Activity. Fill in for each entry.
system: HeLa; assay: Antiproliferative activity against human HeLa cells assessed as […] cell proliferation at 10 uM incubated for 48 hrs in presence of 15 uM of CDDP by WST-1 assay relative to control; assay type: functional
Give bare numbers, in %.

CC(C)S(=O)(=O)c1ccc(-c2cc(C(=O)N3CCC(c4ccccc4)CC3)n[nH]2)cc1	62

Please state, for each entry, its recorded Activity.
1. CCN1CCN(C(=O)c2c[nH]c3ncc(-c4ccc(S(=O)(=O)C(C)C)cc4)cc23)CC1
2. CCN1CCN(Cc2c[nH]c3ncc(-c4ccc(S(=O)(=O)C(C)C)cc4)cc23)CC1

1. 66
2. 65

Please state, for each entry, its recorded Activity.
1. CC(C)S(=O)(=O)c1ccc(-c2cnc3[nH]c(C(=O)NCc4ccccc4)cc3c2)cc1
2. CCN1CCN(C2CCN(C(=O)c3cc4cc(-c5ccc(S(C)(=O)=O)cc5)cnc4[nH]3)CC2)CC1
3. CS(=O)(=O)c1ccc(-c2cc(C(=O)NCc3ccccc3)n[nH]2)cc1
4. CS(=O)(=O)c1ccc(-c2cnc(N)c(C(=O)Nc3ccccc3)n2)cc1
5. CC(C)S(=O)(=O)c1ccc(-c2cnc3[nH]cc(C(=O)NCc4ccccc4)c3c2)cc1

1: 61; 2: 67; 3: 63; 4: 16; 5: 65

Please state, for each entry, its recorded Activity.
1. CCN1CCN(C2CCN(Cc3c[nH]c4ncc(-c5ccc(S(=O)(=O)C(C)C)cc5)cc34)CC2)CC1
2. CCN(CC)c1ccc(CNC(=O)c2n[nH]c3ncc(-c4ccc(S(=O)(=O)C(C)C)cc4)cc23)cc1
3. CCN1CCN(C(=O)c2c[nH]c3ncc(-c4ccc(S(C)(=O)=O)cc4)cc23)CC1

1. 46
2. 57
3. 70
